System: KLF11 3′UTR
PROTOCOL DETAILS: dual-luciferase 3′UTR reporter assay, pAC-KLF11
Assay type: cell-based
EXPERIMENTAL CONDITIONS: luciferase reporter with KLF11 3′UTR, human Hela cell lines; average of at least two independent experiments
Description: In order to determine whether the target genes identified in Example 7 are in actuality targets of miR-8 and miR-200 family miRNAs, the inventors performed cloning. In other words, they inserted a luciferase gene into downstream of each target gene's 3′UTR containing the miRNA target sites. Specifically, in order to obtain cDNAs of respective target genes, from drosophila S2 cell lines or human Hela cell lines, total RNA was extracted by using RNeasy mini kit (QIAGEN, US). […]
REPORTED PROPERTY: Represion fold, KLF11 (fold)
Numbers only, in fold.

For each of the substances below, note its Represion fold, KLF11.
1. 5′-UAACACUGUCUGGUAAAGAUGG-3′ (listed as RNA, chemistry not given here) [miR-141]
2. 5′-UAACACUGUCUGGUAACGAUGU-3′ (listed as RNA, chemistry not given here) [miR-200a]
3. 5′-UAAUACUGCCGGGUAAUGAUGGA-3′ [miR-200c]
4. 5′-UAAUACUGCCUGGUAAUGAUGA-3′ (listed as RNA, chemistry not given here) [miR-200b]
5. 5′-UAAUACUGUCUGGUAAAACCGU-3′ (listed as RNA, chemistry not given here) [miR-429]

OUTPUT:
1.03
1.20
1.07
1.02
1.07

---

Tested on: FOG2 3′UTR
PROTOCOL DETAILS: dual-luciferase 3′UTR reporter assay, pAC-FOG2
Type: cell-based
EXPERIMENTAL CONDITIONS: luciferase reporter with FOG2 3′UTR, human Hela cell lines; average of at least two independent experiments
Please note: class 1 applies when Represion fold, FOG2 is 0.6 fold or greater, and class 0 applies otherwise.

Example entries begin here.
5′-UAAUACUGCCGGGUAAUGAUGGA-3′ [miR-200c]; class 0
5′-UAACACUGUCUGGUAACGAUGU-3′ (listed as RNA, chemistry not given here) [miR-200a]; class 1
5′-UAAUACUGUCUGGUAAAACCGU-3′ (listed as RNA, chemistry not given here) [miR-429]; class 0

Next, consider the following substance.
INPUT: Is the recorded value of Represion fold, FOG2 equal to or greater than 0.6 fold for this substance? 5′-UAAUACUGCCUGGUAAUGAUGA-3′ (listed as RNA, chemistry not given here) [miR-200b]
OUTPUT: class 0

---

Tested on: BAP1 3′UTR
PROTOCOL DETAILS: dual-luciferase 3′UTR reporter assay, pAC-BAP1
Assay type: cell-based
EXPERIMENTAL CONDITIONS: luciferase reporter with BAP1 3′UTR, human Hela cell lines; average of at least two independent experiments
# if measured Represion fold, BAP1 < 0.8 fold: Yes  # else: No

Example entries begin here.
5′-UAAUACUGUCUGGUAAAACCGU-3′ (listed as RNA, chemistry not given here) [miR-429]; Yes
5′-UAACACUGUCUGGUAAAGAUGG-3′ (listed as RNA, chemistry not given here) [miR-141]; No
5′-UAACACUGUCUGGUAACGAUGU-3′ (listed as RNA, chemistry not given here) [miR-200a]; No

INPUT: API: query returns whether the substance falls strictly under 0.8 fold in Represion fold, BAP1. Query: 5′-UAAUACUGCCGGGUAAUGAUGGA-3′ [miR-200c]
OUTPUT: Yes

---

Tested on: PTPRD 3′UTR
PROTOCOL DETAILS: dual-luciferase 3′UTR reporter assay, pAC-PTPRD
Assay type: cell-based
EXPERIMENTAL CONDITIONS: luciferase reporter with PTPRD 3′UTR, human Hela cell lines; average of at least two independent experiments
REPORTED PROPERTY: Represion fold, PTPRD

Past entries and their recorded results:
5′-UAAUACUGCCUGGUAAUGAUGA-3′ (listed as RNA, chemistry not given here) [miR-200b]; 0.89 fold
5′-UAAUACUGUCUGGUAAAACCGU-3′ (listed as RNA, chemistry not given here) [miR-429]; 0.75 fold

For each of the substances below, note its Represion fold, PTPRD.
1. 5′-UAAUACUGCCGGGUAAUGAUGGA-3′ [miR-200c]
2. 5′-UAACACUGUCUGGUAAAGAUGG-3′ (listed as RNA, chemistry not given here) [miR-141]

OUTPUT:
0.97 fold
0.89 fold

Lab note: 5′-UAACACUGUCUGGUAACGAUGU-3′ (listed as RNA, chemistry not given here) [miR-200a] gave Represion fold, PTPRD of 1.25 fold

---

Tested on: SEPT7 3′UTR
PROTOCOL DETAILS: dual-luciferase 3′UTR reporter assay, pAC-SEPT7
Format: cell-based
EXPERIMENTAL CONDITIONS: luciferase reporter with SEPT7 3′UTR, human Hela cell lines; average of at least two independent experiments
REPORTED PROPERTY: Represion fold, SEPT7 (fold)
One number for each entry, in fold.

5′-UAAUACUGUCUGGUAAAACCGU-3′ (listed as RNA, chemistry not given here) [miR-429]; 1.14
5′-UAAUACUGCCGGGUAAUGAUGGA-3′ [miR-200c]; 1.29
5′-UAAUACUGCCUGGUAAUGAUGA-3′ (listed as RNA, chemistry not given here) [miR-200b]; 0.95

For each of the substances below, note its Represion fold, SEPT7.
1. 5′-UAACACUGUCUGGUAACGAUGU-3′ (listed as RNA, chemistry not given here) [miR-200a]
2. 5′-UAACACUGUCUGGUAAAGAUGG-3′ (listed as RNA, chemistry not given here) [miR-141]

OUTPUT:
[0.97, 1.00]

---

Test system: ERBB2IP 3′UTR
PROTOCOL DETAILS: dual-luciferase 3′UTR reporter assay, pAC-ERBB2IP
Assay type: cell-based
EXPERIMENTAL CONDITIONS: luciferase reporter with ERBB2IP 3′UTR, human Hela cell lines; average of at least two independent experiments
REPORTED PROPERTY: Represion fold, ERBB2IP (fold)
One number for each entry, in fold.

5′-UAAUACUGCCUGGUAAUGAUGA-3′ (listed as RNA, chemistry not given here) [miR-200b]; 0.57
5′-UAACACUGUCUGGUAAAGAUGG-3′ (listed as RNA, chemistry not given here) [miR-141]; 0.7
5′-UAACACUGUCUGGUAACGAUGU-3′ (listed as RNA, chemistry not given here) [miR-200a]; 1.18
5′-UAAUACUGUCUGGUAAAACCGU-3′ (listed as RNA, chemistry not given here) [miR-429]; 0.54

Here is another substance to look at.
Lab note: 5′-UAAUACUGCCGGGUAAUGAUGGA-3′ [miR-200c] gave Represion fold, ERBB2IP of 0.59

---

System: WDR37 3′UTR
PROTOCOL DETAILS: dual-luciferase 3′UTR reporter assay, pAC-WDR37
Assay type: cell-based
EXPERIMENTAL CONDITIONS: luciferase reporter with WDR37 3′UTR, human Hela cell lines; average of at least two independent experiments
Would you kindly list Represion fold, WDR37 for each of these substances?
One number for each entry, in fold.

Past entries and their recorded results:
5′-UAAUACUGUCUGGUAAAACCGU-3′ (listed as RNA, chemistry not given here) [miR-429]; 1.31
5′-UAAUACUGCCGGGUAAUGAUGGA-3′ [miR-200c]; 1.21
5′-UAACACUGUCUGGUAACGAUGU-3′ (listed as RNA, chemistry not given here) [miR-200a]; 0.76
5′-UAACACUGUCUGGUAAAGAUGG-3′ (listed as RNA, chemistry not given here) [miR-141]; 1.07

Here is another substance to look at.
Lab note: 5′-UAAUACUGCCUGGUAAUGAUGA-3′ (listed as RNA, chemistry not given here) [miR-200b] gave Represion fold, WDR37 of 1.16
